- MEASUREMENT_TARGET: C. elegans Slo-1a (Caenorhabditis elegans)
- PROTOCOL_TEXT: In vitro assay 1: C. elegans Slo-1a, action at a recombinant C. elegans CHO cell line (membrane potential measurement)
Item-by-item account of EC50
Report the value in nM with no unit label.

compound="Cc1nn2c(C3CC3)c(C(=O)N[C@H]3CCc4ccccc43)cnc2c1-c1cccc(N2CC(F)(F)C2)c1 [Example 441]" unit_label=nM value_reported=10
compound="CC(C)c1c(C(=O)N[C@H]2CCOc3ccccc32)cnc2c(-c3cccc(OC(F)(F)F)c3)c(C(F)(F)F)nn12 [Example 137]" unit_label=nM value_reported=25.1
compound="COCc1cccc(-c2c(C)nn3c(C(C)C)c(C(=O)N[C@H]4CCCc5ccccc54)cnc23)c1 [Example 344]" unit_label=nM value_reported=7.94

# query: EC50 | item Cc1nn2c(C(C)C)c(C(=O)N[C@H]3CCc4ccccc43)cnc2c1-c1cccc(COCC2CC2)c1 [Example 389] | system: C. elegans Slo-1a (Caenorhabditis elegans)
251

# query: EC50 | item Cc1nn2c(C(C)C)c(C(=O)N[C@H]3CCCc4ccccc43)cnc2c1-c1cc(Cl)c(Cl)c(Cl)c1 [Example 125] | system: C. elegans Slo-1a (Caenorhabditis elegans)
25.1

# query: EC50 | item Cc1nn2c(C(C)C)c(C(=O)N[C@H]3CCc4ccccc43)cnc2c1-c1cc(Cl)ccc1Cl [Example 171] | system: C. elegans Slo-1a (Caenorhabditis elegans)
5.01

# query: EC50 | item Cc1nn2c(C(C)C)c(C(=O)N[C@H]3CCc4ccccc43)cnc2c1-c1cccc(Cl)n1 [Example 183] | system: C. elegans Slo-1a (Caenorhabditis elegans)
398

# query: EC50 | item Cc1nn2c(C(C)C)c(C(=O)N[C@H]3CCc4ccccc43)cnc2c1-c1ccc(OC(F)F)cc1 [Example 335] | system: C. elegans Slo-1a (Caenorhabditis elegans)
126

====

- MEASUREMENT_TARGET: UniProt Q95V25
- PROTOCOL_TEXT: In vitro assay 1: C. elegans Slo-1a, action at a recombinant C. elegans CHO cell line (membrane potential measurement)
VALUE_TYPE: pEC50
# log scale: pEC50 equals minus log10 of the concentration in mol/L

Example entries and their recorded answers appear below.
structure=Cc1nn2c(C(C)C)c(C(=O)N[C@H]3CCOc4ccccc43)cnc2c1-c1ccc(Cl)c(F)c1 value_reported=7.70
structure=Cc1nn2c(C(C)C)c(C(=O)N[C@H]3CCc4ccccc43)cnc2c1-c1ccc(F)c(F)c1 value_reported=7.70
structure=Cc1nn2c(C3CC3)c(C(=O)N[C@H]3CCOc4ccccc43)cnc2c1-c1c(F)cccc1F value_reported=8.70
structure=Cc1nn2c(C(C)C)c(C(=O)N[C@H]3CCOc4ccccc43)cnc2c1-c1c(F)cc(Cl)cc1F value_reported=8.20
structure=Cc1nn2c(C3CC3)c(C(=O)N[C@H]3CCOc4ccccc43)cnc2c1-c1ccc(F)cc1 value_reported=8.10
structure=Cc1nn2c(C(C)C)c(C(=O)N[C@H]3CCCc4ccccc43)cnc2c1-c1c(F)cccc1F value_reported=7.90

Please report the recorded pEC50 for `Cc1nn2c(C(C)C)c(C(=O)N[C@H]3CCCc4ccccc43)cnc2c1-c1cccc(N(C)C)c1` .
7.80

Please report the recorded pEC50 for `Cc1nn2c(C(C)C)c(C(=O)N[C@H]3CCOc4ccccc43)cnc2c1-c1cc(Cl)ccc1F` .
8.60

====

- MEASUREMENT_TARGET: C. elegans Slo-1a (Caenorhabditis elegans, UniProt Q95V25)
- Sequence (Q95V25 whole entry): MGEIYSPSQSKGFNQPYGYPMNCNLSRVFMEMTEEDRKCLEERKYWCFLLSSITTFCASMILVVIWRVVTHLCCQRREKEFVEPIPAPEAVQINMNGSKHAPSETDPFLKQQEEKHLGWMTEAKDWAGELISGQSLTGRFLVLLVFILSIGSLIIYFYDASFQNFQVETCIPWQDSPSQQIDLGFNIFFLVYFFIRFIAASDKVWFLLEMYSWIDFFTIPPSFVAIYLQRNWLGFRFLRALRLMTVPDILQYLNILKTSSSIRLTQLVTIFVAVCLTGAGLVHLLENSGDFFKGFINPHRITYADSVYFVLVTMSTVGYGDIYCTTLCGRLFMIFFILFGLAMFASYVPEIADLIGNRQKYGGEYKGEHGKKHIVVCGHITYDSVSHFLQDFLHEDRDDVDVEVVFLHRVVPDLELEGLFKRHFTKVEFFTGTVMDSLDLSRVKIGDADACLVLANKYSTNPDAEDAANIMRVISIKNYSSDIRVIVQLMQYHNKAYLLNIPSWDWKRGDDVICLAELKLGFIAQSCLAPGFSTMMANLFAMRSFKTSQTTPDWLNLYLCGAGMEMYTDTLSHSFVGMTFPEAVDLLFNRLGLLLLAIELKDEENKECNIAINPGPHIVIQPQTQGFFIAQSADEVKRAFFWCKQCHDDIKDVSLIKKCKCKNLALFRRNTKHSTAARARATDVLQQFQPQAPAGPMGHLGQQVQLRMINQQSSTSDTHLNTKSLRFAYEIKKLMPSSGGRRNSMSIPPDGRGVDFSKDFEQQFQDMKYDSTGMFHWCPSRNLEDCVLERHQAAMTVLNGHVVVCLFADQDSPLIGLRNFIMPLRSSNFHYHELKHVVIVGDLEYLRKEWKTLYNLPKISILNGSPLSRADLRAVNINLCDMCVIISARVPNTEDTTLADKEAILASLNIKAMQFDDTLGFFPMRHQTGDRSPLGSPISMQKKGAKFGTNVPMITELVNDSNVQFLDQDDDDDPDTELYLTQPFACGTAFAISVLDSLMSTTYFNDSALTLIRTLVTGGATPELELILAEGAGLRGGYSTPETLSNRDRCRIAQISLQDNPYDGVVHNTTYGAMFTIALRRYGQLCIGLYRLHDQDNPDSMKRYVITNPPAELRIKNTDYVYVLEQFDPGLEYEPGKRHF
- PROTOCOL_TEXT: In vitro assay 1: C. elegans Slo-1a, action at a recombinant C. elegans CHO cell line (membrane potential measurement)
pEC50: −log10 of the molar value.
Classification by pEC50 | ranges: low group = under 7, middle group = from 7 up to 8, high group = 8 and over

compound="CC(C)c1c(C(=O)N[C@H]2CCCc3ccccc32)cnc2c(-c3c(F)cccc3F)c(C(F)(F)F)nn12 [Example 138]" class_name="low group"
compound="Cc1c(C(=O)N[C@H]2CCc3ccccc32)cnc2c(-c3ccccc3Cl)c(C(F)(F)F)nn12 [Example 81]" class_name="low group"
compound="Cc1nn2c(C(C)C)c(C(=O)N[C@H]3CCc4ccccc43)cnc2c1-c1ccc(Br)cc1 [Example 207]" class_name="middle group"

In plain terms, what class is Cc1ccccc1-c1c(C)nn2c(C(C)C)c(C(=O)N[C@H]3CCOc4ccccc43)cnc12 [Example 193] ?
high group

In plain terms, what class is CCc1c(C(=O)N[C@H]2CCc3ccccc32)cnc2c(-c3cccc(C(F)(F)F)c3)c(C)nn12 [Example 306] ?
middle group

In plain terms, what class is Cc1nn2cc(C(=O)N[C@H]3CCc4ccccc43)cnc2c1-c1ccccc1Cl [Example 62] ?
low group

In plain terms, what class is Cc1nn2c(C3CC3)c(C(=O)N[C@H]3CCOc4ccccc43)cnc2c1-c1cccc(N2CC(F)(F)C2)c1 [Example 464] ?
high group

In plain terms, what class is Cc1nn2c(C(C)C)c(C(=O)N[C@H]3CCOc4ccccc43)cnc2c1-c1ccc2c(c1)OC(F)(F)O2 [Example 251] ?
high group

In plain terms, what class is Cc1nn2c(N3CCOCC3)c(C(=O)N[C@H]3CCOc4ccccc43)cnc2c1-c1cccc(Cl)c1Cl [Example 517] ?
high group

In plain terms, what class is Cc1nn2c(C3CC3)c(C(=O)N[C@H]3CCOc4ccccc43)cnc2c1-c1c(Cl)cccc1Cl [Example 467] ?
high group

====

- PROTOCOL_TEXT: log P by HPLC on reversed phase columns (Method L0; [a] acidic, [b] neutral range)
VALUE_TYPE: chromatographic logP
Reply with the value as a number alone.

molecule="COc1c(F)cc(F)c(-c2c(C)nn3c(N4CCOCC4)c(C(=O)N[C@H]4CCOc5ccccc54)cnc23)c1F [Example 531]" value_reported=2.88
molecule="COc1cccc(-c2c(C)nn3c(C(C)C)c(C(=O)N[C@H]4CCOc5ccccc54)cnc23)c1 [Example 395]" value_reported=4.24
molecule="Cc1nn2c(C3CC3)c(C(=O)N[C@H]3CCOc4ccccc43)cnc2c1-c1cccc(Cl)c1Cl [Example 473]" value_reported=4.07

Please report the recorded chromatographic logP for Cc1nn2c(C(C)C)c(C(=O)N[C@H]3CCOc4ccccc43)cnc2c1-c1cc(Cl)cc(C(F)(F)F)c1 [Example 240] .
5.65

Please report the recorded chromatographic logP for Cc1nn2c(C(C)C)c(C(=O)N[C@H]3CCCc4ccccc43)cnc2c1-c1cc(Cl)c(Cl)c(Cl)c1 [Example 125] .
6.86

Please report the recorded chromatographic logP for Cc1nn2c(C3CC3)c(C(=O)N[C@H]3CCOc4ccccc43)cnc2c1-c1ccccc1Cl [Example 452] .
3.64

Please report the recorded chromatographic logP for Cc1nn2c(Cc3ccc(F)cc3)c(C(=O)N[C@H]3CCOc4ccccc43)cnc2c1-c1c(F)cccc1Cl [Example 228] .
4.72

Please report the recorded chromatographic logP for Cc1nn2c(C3CC3)c(C(=O)N[C@H]3CCc4ccccc43)cnc2c1-c1cccc(Cl)c1 [Example 352] .
4.38

====

- PROTOCOL_TEXT: log P by HPLC on reversed phase columns (Method L0; [a] acidic, [b] neutral range)
Criterion: chromatographic logP strictly under 5. Met: y. Not met: n.

Worked examples follow.
molecule="CC(C)c1c(C(=O)N[C@H]2CCOc3ccccc32)cnc2c(-c3cc(Cl)cc(Cl)c3)c(S(=O)(=O)C(C)C)nn12 [Example 217]" class_name=y
molecule="Cc1nn2c(C(C)C)c(C(=O)N[C@H]3CCOc4ccccc43)cnc2c1-c1cccc(OC(F)(F)F)c1 [Example 394]" class_name=n
molecule="COc1cc(-c2c(C)nn3c(C(C)C)c(C(=O)N[C@H]4CCOc5ccccc54)cnc23)cc(OC)c1OC [Example 249]" class_name=y
molecule="Cc1nn2c(CC(C)C)c(C(=O)N[C@H]3CCOc4ccccc43)cnc2c1-c1c(F)cccc1Cl [Example 225]" class_name=y
molecule="Cc1nn2c(C3CC3)c(C(=O)N[C@H]3CCOc4ccccc43)cnc2c1-c1cccc(Cl)c1 [Example 455]" class_name=y
molecule="CNc1c(C(=O)N[C@H]2CCOc3ccccc32)cnc2c(-c3cccc(Cl)c3Cl)c(C)nn12 [Example 548]" class_name=y
molecule="Cc1ccccc1-c1c(C)nn2c(C(C)C)c(C(=O)N[C@H]3CCOc4ccccc43)cnc12 [Example 193]" class_name=y
molecule="Cc1nn2c(C(C)C)c(C(=O)N[C@H]3CCOc4ccccc43)cnc2c1-c1cc(Cl)cc(Cl)c1Cl [Example 234]" class_name=n
molecule="Cc1nn2c(C(C)C)c(C(=O)N[C@H]3CCCc4ccccc43)cnc2c1-c1ccccc1F [Example 94]" class_name=y
molecule="COc1cc(Cl)cc(-c2c(C)nn3c(C(C)C)c(C(=O)N[C@H]4CCCc5ccccc54)cnc23)c1 [Example 378]" class_name=n

Does this molecule meet the criterion chromatographic logP < 5? Cc1nn2c(C(C)C)c(C(=O)N[C@H]3CCc4ccccc43)cnc2c1-c1cccc(S(C)(=O)=O)c1 [Example 288]
y

Does this molecule meet the criterion chromatographic logP < 5? Cc1nn2c(C(C)C)c(C(=O)N[C@H]3CCOc4ccccc43)cnc2c1-c1cnc(F)c(F)c1 [Example 221]
y

Does this molecule meet the criterion chromatographic logP < 5? Cc1nn2c(C(C)C)c(C(=O)N[C@H]3CCc4ccccc43)cnc2c1-c1ccccc1 [Example 174]
y

Does this molecule meet the criterion chromatographic logP < 5? Cc1nn2c(C(C)C)c(C(=O)N[C@H]3CCc4ccccc43)cnc2c1-c1cccc(CN2CCCC2)c1 [Example 365]
y

Does this molecule meet the criterion chromatographic logP < 5? COc1cc(-c2c(C)nn3c(C(C)C)c(C(=O)N[C@H]4CCc5ccccc54)cnc23)cc(C(F)(F)F)c1 [Example 312]
n

Does this molecule meet the criterion chromatographic logP < 5? Cc1nn2c(C(C)C)c(C(=O)N[C@H]3CCc4ccccc43)cnc2c1-c1ccc(N2CCOCC2)cc1 [Example 326]
y
